pIC50: −log10 of the molar value.
Please find below pIC50 data on HPK1 (Homo sapiens (Human), UniProt Q92918) compiled from the literature.

Compound | Target Of Assay | Censoring Qualifier | pIC50
CN1CCc2cc(F)c(Nc3ncc(C(N)=O)c(Nc4cccc5c4OC(C)(C)C5)n3)cc2C1 | HPK1 (Homo sapiens (Human), UniProt Q92918) | = | 8.95
COc1cc(CS(=O)(=O)C(C)C)ccc1Nc1ncc2c(N)c(F)c(-c3cnc4c(c3C)NCCO4)cc2n1 | HPK1 (Homo sapiens (Human), UniProt Q92918) | = | 9.98
COc1cccc(F)c1-n1nc2c(-c3cccc(N4CCC(N)CC4)c3)n[nH]c2cc1=O | HPK1 (Homo sapiens (Human), UniProt Q92918) | ≥ | 7.30
Cn1ccc2c(-c3ncc(Nc4ccc(N5CCC[C@](O)(CN6CCOCC6)C5)cn4)c4c3CNC4=O)ccnc21 (single isomer, unassigned) | HPK1 (Homo sapiens (Human), UniProt Q92918) | > | 7.00
COc1cc2c(cc1Nc1ncc3ccc([C@H]4CC[C@H](CN)CC4)cc3n1)CN(C)CC2 | HPK1 (Homo sapiens (Human), UniProt Q92918) | = | 6.78
CC(C)Oc1cc(-c2cc(Nc3ccc(N4CCC(O)CC4)cn3)c3c(=O)[nH]ccc3n2)c(F)cc1C(=O)N1CCCCC1 | HPK1 (Homo sapiens (Human), UniProt Q92918) | ≥ | 7.00
Cc1cc(-c2cnc(N)c(-n3cc(C(=O)N4CCN(C)CC4)cn3)n2)cc2c1CCN(C)C2 | HPK1 (Homo sapiens (Human), UniProt Q92918) | = | 7.42

* * *

Please find below IC50 data on HPK1 (Homo sapiens (Human), UniProt Q92918) compiled from the literature.
Checkbox rule: IC50 lower than 90 nM = condition met; IC50 not lower than 90 nM = condition not met.

Compound | Cat
CC[C@H](C)Cc1ccccc1Nc1nc(Nc2cc3c(cc2OC)CCN(C)C3)ncc1C(N)=O | condition not met
CCn1nc(C)cc1Nc1nc(Nc2cc3c(cc2OC)CCN(C)C3)ncc1C(N)=O | condition not met
COc1cc2c(cc1Nc1ncc(C(N)=O)c(Nc3c(F)cc(Br)cc3F)n1)CN(C)CC2 | condition met
CCn1ccc(N/C(C)=C2\C(=O)Nc3cnc(-c4cnccc4C)cc32)n1 | condition met
CNc1ncc2c(n1)N1CCN=C1C(c1ccc(NC(=O)C3(C(=O)Nc4ccc(F)cc4)CC3)cc1F)=C2 | condition not met
Cc1c(-c2c(F)c(N)c3cnc(Nc4ccc5c(c4)CN(C(C)C)CC5)nc3c2Cl)cnc2c1NCCO2 (single isomer, unassigned) | condition met
CNc1ncc2c(n1)N1CCN=C1C(c1cc(NC(=O)c3cnnc(C(F)(F)F)c3)ccc1C)=C2 | condition not met
COc1cc2c(cc1Nc1ncc(C(N)=O)c(N[C@@H]3CCCC[C@H]3CO)n1)CN(C)CC2 | condition met

* * *

Please find below IC50 data on UniProtKB Q92918 compiled from the literature.
Observed Property: IC50

Compound | Val
O=C1NCc2c(-c3cnc4cc(C(F)F)ccn34)ccc(Nc3ccc(C4(O)CCOCC4)cn3)c21 | < 100 nM
CN1CCN(c2ccc(Nc3ccc(-c4cnc5c(C#N)cccn45)c4c3C(=O)NC4)nc2)CC1 | < 100 nM
O=c1[nH]ccc2nc(N3CCC[C@H](O)C3)cc(Nc3ccc(N4CCC(O)CC4)cn3)c12 | ≤ 100 nM
CNC1CCN(c2ccc(Nc3ccc(-c4cnc5ccccn45)c4c3C(=O)NC4)nc2)CC1 | < 100 nM
CCN(CC)Cc1nc(Nc2ccc(-c3cnc4cc(F)ccn34)c3c2C(=O)NC3)ccc1N1CCOCC1 | < 100 nM
Cc1cc(-c2cnc(N)c(OCc3ccnc(C#Cc4ccncc4)c3)n2)cc2c1CCN(C)C2 | 137 nM
Cc1cccc(F)c1-n1nc2c(-c3cc4c(cc3F)CCN(C)C4)n[nH]c2cc1=O | 50 to 500 nM
CC(C)n1ncc2c(N3C[C@H]4CNC[C@H]4C3)c(NC(=O)c3ccc(=O)n(-c4c(F)cccc4F)n3)cc(F)c21 | < 100 nM
Cc1cnccc1-c1cc(Nc2ccc(N3CCC(O)CC3)cn2)c2c(=O)[nH]ccc2n1 | > 1000 nM
COC1CC(NC(=O)c2ccc(Nc3ncc4c(N)c(F)c(-c5cnc6c(c5C)NCCO6)cc4n3)cc2)C1 (stereo not shown) | 0.0791 nM
NC(=O)c1cnc(Nc2ccc3c(c2)C(=O)OCC3)nc1Nc1ccccc1Br | 63.8 nM
Cc1cc(-c2cnc(N)c(Oc3cnn(CCC#N)c3)n2)cc2c1CCN(C)C2 | 6.5 nM
COCCNc1ccn2c(-c3ccc(Nc4ccc(N5CCOCC5)cn4)c4c3CNC4=O)cnc2c1 | 100 to 1000 nM
Cc1cccc(F)c1-n1nc2c(-c3ccc4c(c3)CCN(C3CN(C)C3)C4)n[nH]c2cc1=O | ≤ 50 nM
CN(C)Cc1nc(Nc2ccc(-c3cnc4cc(F)ccn34)c3c2C(=O)NC3)ccc1N1CCO[C@@H](C(C)(C)O)C1 | < 100 nM
C[C@@H]1CN(c2ccc(Nc3ccc(-c4cnc5cc(F)ccn45)c4c3C(=O)NC4)nc2CN(C)C)CCO1 | < 100 nM
COc1nc2c(cc1Nc1ncc3cccc(-c4ccccn4)c3n1)CN(C)CC2 | 4.27 nM
COc1nc2c(cc1Nc1ncc3ccnc(N[C@@H]4CCC[C@H]4O)c3n1)CN(C)CC2 | < 0.1 nM
COc1cc2c(cc1Nc1ncc(C(N)=O)c(N[C@H]3CC[C@@H](N)CC3)n1)CN(C)CC2 | 9.79 nM
Cc1cc(-c2cnc(N)c(Oc3cnn(C(C)(C)C#N)c3)n2)cc2c1CCN(C)C2 | 20 nM
COc1ccccc1Nc1ncc2c(N)c(F)c(-c3cnc4c(c3C)NCCO4)cc2n1 | 0.254 nM
C/C(Nc1cnn(C(C)(C)C#N)c1)=C1/C(=O)Nc2ccc(-c3cnccc3C)nc21 | < 50 nM
Cn1ccc2c(-c3ncc(Nc4cccc(N5CC[C@H]6CNC[C@H]65)n4)c4c3CNC4=O)ccnc21 | < 100 nM
CC1(C)CN(c2c(NC(=O)c3ccc(=O)n(-c4c(F)cccc4F)n3)ccc3nn(C4(C(F)(F)F)CC4)cc23)C[C@@H]1N (single isomer, unassigned) | < 100 nM
COc1cc2c(cc1Nc1ncc(C(N)=O)c(Nc3cccc4c3OCC4)n1)CN(C)CC2 | 0.03 nM
Cc1cc(-c2cnc3[nH]cc(-c4ccc(C(=O)N(C)C[C@@H]5CCOC5)cc4)c3c2)cc2c1N1CCN(C)C[C@H]1CC2 | 14 nM
COc1ncccc1Nc1ncc2c(N)c(F)c(-c3cnc4c(c3C)NCCO4)cc2n1 | 0.117 nM
CC(=O)Nc1cc(COc2nc(-c3cc(C)c4c(c3)CN(C)CC4)cnc2N)ccn1 | 85 nM
COc1cccc(-c2cc(Nc3ccc(N4CCC(O)CC4)cn3)c3c(=O)[nH]ccc3n2)c1F | 100 to 1000 nM
Cc1cccc(F)c1-n1nc2c(-c3ccc(N4CCN(C)C(CO)C4)nc3)n[nH]c2cc1=O (stereo not shown) | ≤ 50 nM
Cc1nc2c(N3CCC[C@@H](N)C3)c(NC(=O)c3ccc(=O)n(-c4c(F)cccc4F)n3)ccc2n1C | < 100 nM
